assay: inhibitors of TNFa-induced NFkB p65 translocation, primary screen, imaging, HUVEC, MLSMR starter and 10KST1 sets (AID 438); settings: HUVEC TNFa-induced p65 nuclear translocation; at 2 µM, stronger effect = higher value unless noted;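 also: compound added about 3h40 before a 20 min TNFalpha stimulation; signal is the nuclear over cytoplasmic p65 intensity ratio per well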
We use -10% as the dividing line for inhibition: on or above the line is 1, below is 0.

molecule | category-label
COc1ccccc1-n1c(O)c(C=NCc2ccc3c(c2)OCO3)c(=O)[nH]c1=O | 0
CCCCCCn1c(O)c(C=Nc2c(C)n(C)n(-c3ccccc3)c2=O)c(=O)[nH]c1=O | 1
CC1=C(C(=O)OC(C)C)[C@]2(C(=O)N(CC(N)=O)c3ccccc32)C(C#N)=C(N)O1 | 1
COc1ccc(CC2C(=O)NC(=O)NC2=O)c(OC)c1 | 1
N=C(N)c1c(O)n(C2CCCCC2)c(=O)n(C2CCCCC2)c1=O | 0
CCOCC(=O)NC1CCSC1=O (stereo unspecified) | 1
CCCSP1(=S)NCCCO1 (stereo unspecified) | 0
CC1(C)CC(n2[nH]c(=O)c3c2NC(=O)CSC3c2ccccc2)CCO1 (stereo unspecified) | 1
Cc1oc2ccc(OC(=O)N(C)C)cc2c1C(=O)OC(C)C | 1
O=c1[nH]c(=O)n(CCc2ccc(F)cc2)c(O)c1C=NCCCn1ccnc1 | 1
CC(C)(C)OC(=O)c1c(N)n(Cc2ccco2)c2nc3ccccc3nc12 | 0

----------
test: reduction of polyQ htt aggregates in cells – imaging, exon1htt(103Q)mCFP cells, high-content imaging, primary screen (AID 483); conditions: exon1htt(103Q)mCFP cell line, aggregate imaging, at 2 µM; measured here: cell count, toxicity;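 also: compound exposure lasted 3 days before fixation; percent of the per-plate median nuclei count of sample wells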

molecule | unit-info | nuclei count
O=C(O)c1nonc1-c1nonc1C(=O)O | % | 99.5
O=C(COc1ccc2ccccc2c1)N1CCN(C2CCN(Cc3ccccc3)CC2)CC1 | % | 75.6
Cc1cccc(-n2c(-c3ccco3)nc3ccccc3c2=O)n1 | % | 97.9
Cn1c(=O)cc(OCC(=O)N2CCN(C3CCCCC3)CC2)c2ccccc21 | % | 81.7
COC(=O)CC1(Cc2ccccc2)C(=O)NC(=O)NC1=O | % | 78
COC(=O)c1c(C)n(Cc2ccc3c(c2)OCO3)c2ccc(O)cc12 | % | 109
COc1ccc(C2NCc3ccc4c(c3-n3cccc32)OCO4)cc1O (stereo unspecified) | % | 0.8
O=C(O)C1(c2ccc(Cl)cc2)CCC1 | % | 104
O=c1[nH]c(=O)n(-c2cccc3ccccc23)c(O)c1C=NCCCn1ccnc1 | % | 113
C[N+]1(C)CCc2cc3c(cc2[C@H]1[C@@H]1OC(=O)c2c1ccc1c2OCO1)OCO3 | % | 110
CN1C(=O)C(Cc2cccc3ccccc23)C(=O)N(C)C1=O | % | 108
CC(C)CC12CN3CCN(CC(C3)/C1=N/O)C2 | % | 126
Cc1ccc(OCC(=O)NCCN2CCN(C(=O)COc3ccc(C)cc3)CC2)cc1 | % | 94.7
CN1C(=O)CN=C(c2ccc(Cl)cc2)c2cc(Cl)ccc21 | % | 108
CN1C(=O)N(C)C(=O)C2(Cc3ccccc3N3CCOCC32)C1=O (stereo unspecified) | % | 92.5
Cc1c2ccncc2c(C)c2c1[nH]c1ccccc12 | % | 27.6
Cc1ccc(C)c(NC(=O)CSc2nnc([C@@H](N)Cc3c[nH]c4ccccc34)o2)c1 | % | 103
O=C(c1ccc2nc(-c3ccco3)c(-c3ccco3)nc2c1)N1CCC2(CC1)OCCO2 | % | 93.5
COCCOC(=O)C1=C(N)Oc2c(c(=O)oc3ccccc23)C1c1ccncc1 (stereo unspecified) | % | 73
C[C@H]1OC[C@@H](C[N+](C)(C)C)O1 | % | 93.2
COc1ccc(CCn2c(O)c(C=NCCCN(C)C)c(=O)[nH]c2=O)cc1OC | % | 110
CCOc1ccc(-n2c(O)c(C=NCCN3CCNCC3)c(=O)[nH]c2=O)cc1 | % | 96.7
COC(=O)c1ccccc1-n1c(C)nc2ccccc2c1=O | % | 103
CC(NC(C)(C)C)C(=O)c1cccc(Cl)c1 (stereo unspecified) | % | 102
CCCCn1c(O)c(C=NC2CCCCC2N)c(=O)[nH]c1=O (stereo unspecified) | % | 113
CC(C)OCCCNC(=O)c1c(N)n(CC2CCCO2)c2nc3ccccc3nc12 (stereo unspecified) | % | 75
O=c1[nH]c2ccccc2n1CCCN1CCC(n2c(=O)[nH]c3cc(Cl)ccc32)CC1 | % | 79.8
C[C@H]1CCCC(=O)CCC/C=C/c2cc(O)cc(O)c2C(=O)O1 | % | 93.9
Cc1ccc(O)c(CN2CCN(c3ccccc3)CC2)c1 | % | 95.9
O=c1[nH]c(=O)n(Cc2ccccc2)c(O)c1C=NCCCO | % | 90.8
Cc1cc(C)c(C(=O)CN2CCOCC2)c(C)c1 | % | 89.5

----------
experiment: blockers of RIG-like receptor reporter activation – cell-based, Sendai virus stimulus, luciferase, 10K MLSCN set, TLR/RLR signaling modifier project, primary screen (AID 602276); details: HEK293 RL24 IRF3 luciferase reporter, at 10 µM;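 also: firefly luciferase from ISG56 promoter only with Renilla not read in this screen; 0% = Sendai virus plus DMSO and 100% = medium plus DMSO without virus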
Active and inactive are the calls of the source.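 The calls were made as follows: active = inhibition at or above 50% at 10 µM; inactive = inhibition below 50%.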
Outcomes: class 1 (active), class 0 (inactive)

compound | category-label
NC(=O)OCCSc1nnc(-c2cccc(C(N)=S)c2)o1 | class 0
CN1C(=O)N(C)C(=O)C2(Cc3ccccc3N3CCOCC32)C1=O (stereo unspecified) | class 0
CN1CCN(c2nc3ccccc3c(=O)n2-c2ccccc2)CC1 | class 1
CCCC(C)(COC(N)=O)COC(=O)NC(C)C (stereo unspecified) | class 0
O=C(CCCN1CCC2(CC1)C(=O)NCN2c1ccccc1)c1ccc(F)cc1 | class 0
CCCNC(=O)c1c(N)n(Cc2ccc3c(c2)OCO3)c2nc3ccccc3nc12 | class 0
CCc1ccc(OCCCN=C(C)c2c(O)n(C)c(=O)n(C)c2=O)cc1 | class 0
Cc1ccc(CS(=O)(=O)CCC(=O)N2CCC3(CC2)OCCO3)cc1 | class 0
CCOP(=S)(OCC)c1ccc(N(C)C)cc1 | class 0
COC1=CC(=O)OC(/C=C/c2ccccc2)C1 (stereo unspecified) | class 0
Cc1cccc(C2=NCC(=O)N(CC(=O)NCc3ccco3)c3sc4c(c32)CCCC4)c1 | class 0
CSc1ccc(C(=O)C(C)(C)N2CCOCC2)cc1 | class 0
O=C(Cn1c2c(c(-c3ccccc3Cl)cc1=O)CCC2)N1CCC2(CC1)OCCO2 | class 0
CN1[C@@H]2CC[C@H]1CC(OC(=O)C1C=Nc3ccccc31)C2 (stereo partly specified) | class 0
O=C(O)C1(c2ccc(Cl)cc2)CCC1 | class 0
COc1ccc(CN2CCN(c3ccccc3F)CC2)c(OC)c1 | class 0
Nc1ccnn1C1CCNCC1 | class 0
N#Cc1ccccc1Cn1cc(C(=O)c2ccco2)c2ccccc21 | class 0
O=C(c1cccs1)C1CN2CCC1CC2 (stereo unspecified) | class 0
CCNc1ccc(P(=S)(N(C)C)N(C)C)cc1 | class 0
O=C(Cn1cc(C(=O)c2ccccc2)c2ccccc21)NCc1ccco1 | class 0
O=C1CC[C@@]2(O)[C@H]3Cc4ccc(O)c5c4[C@@]2(CCN3CC2CC2)[C@H]1O5 | class 0
Cn1c(O)c(C=NCc2ccco2)c(=O)n(C)c1=O | class 0
Cc1ccc(-c2nc(CS(=O)CC(=O)N3CCC4(CC3)OCCO4)c(C)o2)cc1 (stereo unspecified) | class 0
C[N+]1(C)CCc2cc3c(cc2[C@H]1[C@@H]1OC(=O)c2c1ccc1c2OCO1)OCO3 | class 0
NCC1(CC(=O)O)CCCCC1 | class 0
CC1CCC(C(=O)NC(C(=O)N2CCC3(CC2)OCCO3)C(C)C)CC1 (stereo unspecified) | class 0
Cc1cnn(C2CCN(C)CC2)c1N | class 0
CCN1c2nc3ccccn3c(=O)c2CC2(C(=O)N(C)C(=O)N(C)C2=O)C1C (stereo unspecified) | class 0
NCCc1ccc(O)cc1 | class 0
COc1ccc(OC)c(C(O)C(C)N)c1 (stereo unspecified) | class 0

----------
experiment: Primary imaging screen for DUSP6 inhibitors that restore phospho-Erk in transfected HeLa cells, chemical complementation (AID 609); conditions: HeLa MKP-3 transfected, phospho-Erk imaging KS statistic; measured here: nuclear c-Myc green intensity z-score; at 10 µM
readout-label: z-score

compound | meas-value
CC1CCC(C(C)C)C(OP(N)(=O)c2ccccc2)C1 (stereo not given) | -0.238
CCOc1ccccc1-n1c(O)c(C=Nc2c(C)n(C)n(-c3ccccc3)c2=O)c(=O)[nH]c1=O | -0.137
COCC(C)OC(=O)c1c(N)n(Cc2ccco2)c2nc3ccccc3nc12 (stereo not given) | 0.931
O=c1[nH]c2ccccc2c(=O)n1-c1cccc(Cl)c1 | 2.35
C=CCOC(=O)C1=C(C)OC(N)=C(C#N)[C@@]12C(=O)N(CC(N)=O)c1ccccc12 | -0.273

// provenance: PubChem BioAssay
